# target_or_test_system: PABPN1 (Homo sapiens)
# Sequence: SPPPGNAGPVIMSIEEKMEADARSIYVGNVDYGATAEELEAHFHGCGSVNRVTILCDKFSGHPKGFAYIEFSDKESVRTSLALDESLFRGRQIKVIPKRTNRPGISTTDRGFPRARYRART
# method_description: protein domain microarray probed with biotinylated miRNA; Domain array: 20 mM Tris-HCl pH 7.4, 200 mM KCl, 0.2 mM EDTA, 0.05% NP40, 2 ug/ul heparin, overnight 4 C. ORF array: PBS pH 7.0 with RNase inhibitor, 100 ng RNA; high values mean tight binding
# assay_setup: ssRNA
Decide by binding signal: equal to or exceeding 2000 fluorescence intensity means Y, less means N.

Reference set, count: 5
> print(dat)
         primary.sequence  target.or.test.system  discrete.label
1  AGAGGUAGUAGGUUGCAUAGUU  PABPN1 (Homo sapiens)               Y
2  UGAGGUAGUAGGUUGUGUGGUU  PABPN1 (Homo sapiens)               Y
3  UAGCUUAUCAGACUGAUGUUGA  PABPN1 (Homo sapiens)               N
4  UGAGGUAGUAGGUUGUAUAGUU  PABPN1 (Homo sapiens)               Y
5  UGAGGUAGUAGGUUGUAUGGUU  PABPN1 (Homo sapiens)               Y

[ask] For this sequence, is measured binding signal 2000 fluorescence intensity or higher? `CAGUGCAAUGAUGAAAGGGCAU`
[reply] Y
